Cited source: patent US20240360178A1

Target: human PD-1 (Jurkat-PD-1 cells) / PE-labeled human PD-L1-Ig (Homo sapiens, UniProt Q15116)
Construct: expressed in transfected cells; host or cells: Jurkat cell line over-expressing human PD-1
Sequence (Q15116 25-288): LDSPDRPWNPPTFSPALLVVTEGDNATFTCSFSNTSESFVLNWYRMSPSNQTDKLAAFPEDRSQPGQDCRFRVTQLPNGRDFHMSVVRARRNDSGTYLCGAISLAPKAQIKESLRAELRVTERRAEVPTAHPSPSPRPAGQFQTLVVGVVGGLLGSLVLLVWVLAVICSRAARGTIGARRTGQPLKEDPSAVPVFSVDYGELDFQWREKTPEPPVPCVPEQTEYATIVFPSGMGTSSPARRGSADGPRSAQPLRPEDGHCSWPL
Test: Jurkat-PD-1 Cell Binding High-Content Screening Assay (CBA); Jurkat hPD1-PDL1 assay
Settings: Jurkat cell line over-expressing human PD-1; PE-labeled PD-L1-Ig 20 nM final; compound incubated 2 hours at 37° C.; read-out: Jurkat HPD1-PDL1 IC50
Text: The ability of the compounds of formula (I) to bind to PD-1 was investigated using a Jurkat-PD-1 Cell Binding High-Content Screening Assay. Jurkat-PD-1 Cell Binding High-Content Screening Assay (CBA) Phycoerythrin (PE) was covalently linked to the Ig epitope tag of human PD-L1-Ig and fluorescently-labeled PD-L1-Ig was used for binding studies with a Jurkat cell line over-expressing human PD-1 (Jurkat-PD-1). […]
Positions of bridges follow the written chain, without caps; N, C: chain ends. Non-standard residues stand in square brackets, D forms with d. Residues, ends and D or L forms follow the SMILES beside them. Ala(4-thiazolyl) = N[C@@H](Cc1cscn1)C(=O)O; Bip = N[C@@H](Cc1ccc(-c2ccccc2)cc1)C(=O)O; NMeA = CN[C@@H](C)C(=O)O; Nle = CCCC[C@H](N)C(=O)O; Orn = NCCC[C@H](N)C(=O)O; Sar = CNCC(=O)O
property-label: IC50 (nM)
# number only, unit nM dropped from output

CCCC[C@@H]1NC(=O)[C@H](CC(N)=O)NC(=O)[C@H]2CCCN2C(=O)[C@H](C)N(C)C(=O)[C@H](C(C)C)NC(=O)[C@H](Cc2ccc(-c3ccccc3)cc2)NC(=O)[C@H](CC(C)C)NC(=O)[C@H](Cc2c[nH]c3ccccc23)NC(=O)[C@H](CC(=O)O)NC(=O)[C@H](Cc2ccc(O)cc2)NC(=O)[C@H](Cc2ccccc2)NC(=O)CSC[C@@H](C(=O)N[C@@H](C)C(N)=O)NC(=O)[C@H]([C@@H](C)O)NC(=O)[C@H](CCCNC(=N)N)NC1=O [Example 1121] ({CH2CO}-FYDWL[Bip]V[NMeA][dP]N[Nle]RTCA-NH2; thioether N-14) = 430
CC(C)C[C@@H]1NC(=O)[C@H](Cc2c[nH]c3ccccc23)NC(=O)[C@H](CC(=O)O)NC(=O)[C@H](Cc2ccc(O)cc2)NC(=O)[C@H](Cc2ccccc2)NC(=O)CSC[C@@H](C(=O)NCC(N)=O)NC(=O)[C@H](CO)NC(=O)[C@H](C(C)C)NC(=O)[C@H](CC(C)C)NC(=O)[C@H](CCCN)NC(=O)CN(C)C(=O)[C@H](C)N(C)C(=O)[C@H](C(C)C)NC(=O)[C@H](Cc2ccc(-c3ccccc3)cc2)NC1=O [Example 1079] ({CH2CO}-FYDWL[Bip]V[NMeA][Sar][Orn]LVSCG-NH2; thioether N-14) = 220

Next molecule, IC50 to be filled in.
Which IC50 value belongs to CC(C)C[C@@H]1NC(=O)[C@H](Cc2c[nH]c3ccccc23)NC(=O)[C@H](CC(=O)O)NC(=O)[C@H](Cc2ccc(O)cc2)NC(=O)[C@H](Cc2cscn2)NC(=O)CSC[C@@H](C(=O)NCC(N)=O)NC(=O)[C@H](CO)NC(=O)[C@H](C(C)C)NC(=O)[C@H](CC(C)C)NC(=O)[C@H](CC(N)=O)NC(=O)CN(C)C(=O)[C@H](C)N(C)C(=O)[C@H](C(C)C)NC(=O)[C@H](Cc2ccc(-c3ccccc3)cc2)NC1=O [Example 1132] ({CH2CO}-[Ala(4-thiazolyl)]YDWL[Bip]V[NMeA][Sar]NLVSCG-NH2; thioether N-14) ? 530
